Listing of entries alongside the reported 1-BDC.
molecular target: SARS-CoV-2 NSP3 Mac1 (Severe acute respiratory syndrome coronavirus 2, UniProt P0DTD1); assay type: binding; conditions: PanDDA 1-BDC value of the event; crystal soak, compound concentration 100 mM; per dataset
Reply with just the number.

Recorded results for 8 compounds are shown here.
compound	property_label	reported
CNC(=O)Nc1ccc(C(=O)NC2c3ccccc3CC2C(=O)O)cc1 (stereo not drawn) [Z8515]	1-BDC	0.09
Cc1nnc(CNc2cnc(N)c(Cl)n2)n1C1CC1 [ZINC000893101964]	1-BDC	0.04
O=C(NC1c2cccc(O)c2CC1C(=O)O)c1cnc2c(c1)CCCN2 (stereo not drawn) [8539_0006]	1-BDC	0.1
Cc1nc(Cn2cnc3c(N)nc(N)nc32)cs1 [Compound Z8569]	1-BDC	0.4
O=C(O)C1(F)CN(c2cc(Nc3ccccc3)ncn2)CC12CCC2 (stereo not drawn) [LL1_0025]	1-BDC	0.12
O=C(NC1c2cccc(O)c2CC1C(=O)O)c1ccc2[nH]c(CO)nc2c1 (stereo not drawn) [Z8539_0002]	1-BDC	0.26
O=C(Nc1ccc(C(=O)NC2c3ccccc3CC2C(=O)O)cc1)NC1CC1 (stereo not drawn) [8539_0029]	1-BDC	0.13
Cc1nnc2n1CC(C(=O)O)N(C(=O)c1ccc(NC(=O)NC3CC3)cc1)C2 (stereo not drawn) [8539_0037]	1-BDC	0.4

Shifting focus to the compound that follows.
For reference, reported 1-BDC for COC(=O)Nc1ccc(C(=O)NC2c3ccccc3CC2C(=O)O)cc1 (stereo not drawn) [Z8531] stands at 0.04
